A collection of binders and their measured Kd
- EXPERIMENTAL TARGET: T1, Avi-UPF2-MIF4GIII (biotinylated) (UniProt Q9HAU5 761-1054, biotin on the Avi tag (BirA))
- T1 sequence: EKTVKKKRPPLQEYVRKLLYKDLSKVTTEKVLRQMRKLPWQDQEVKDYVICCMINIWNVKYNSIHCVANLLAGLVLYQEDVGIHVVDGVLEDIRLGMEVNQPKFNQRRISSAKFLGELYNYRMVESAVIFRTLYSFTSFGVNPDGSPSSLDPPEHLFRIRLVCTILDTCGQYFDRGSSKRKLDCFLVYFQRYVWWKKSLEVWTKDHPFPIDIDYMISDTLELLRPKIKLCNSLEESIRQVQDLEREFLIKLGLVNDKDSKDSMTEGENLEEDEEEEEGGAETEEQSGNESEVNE
- ASSAY TEXT: SPR
// note: answer is a bare numeric in nM

As a guide, the following entries are already answered.
BINDER	READOUT UNITS	Kd
UPF3B-41-189 Y167A (domain or fragment) DRNKEKKEALSKVVIRRLPPTLTKEQLQEHLQPMPEHDYFEFFSNDTSLYPHMYARAYINFKNQEDIILFRDRFDGYVFLDNKGQEYPAIVEFAPFQKAAKKKTKKRDTKVGTIDDDPEYRKFLESAATDNEKMTSTPETLLEEIEAKN	nM	3.3
UPF3A-58-206-Iso1 (domain or fragment) KPREEKRTALSKVVIRRLPPGLTKEQLEEQLRPLPAHDYFEFFAADLSLYPHLYSRAYINFRNPDDILLFRDRFDGYIFLDSKGLEYPAVVEFAPFQKIAKKKLRKKDAKTGSIEDDPEYKKFLETYCVEEEKTSANPETLLGEMEAKT	nM	0.22

Continue with the binder presented below.
// Kd lookup, key: UPF3B-41-189 (domain or fragment) DRNKEKKEALSKVVIRRLPPTLTKEQLQEHLQPMPEHDYFEFFSNDTSLYPHMYARAYINFKNQEDIILFRDRFDGYVFLDNKGQEYPAIVEFAPFQKAAKKKTKKRDTKVGTIDDDPEYRKFLESYATDNEKMTSTPETLLEEIEAKN 3.6
